# System: Caco-2
# test_method_notes: relative viability EC50 (midpoint between 100% and the lowest measured viability); higher = less toxic
# measurement_setup: 72 h

{"columns": ["smiles_representation", "relation", "relative viability EC50 / nM"],
 "data": [
  ["OCc1ccc(-c2nn(Cc3ccccc3)c3ccccc23)o1", ">", 10000],
  ["C[C@@H]1C[C@H]2[C@@H]3C[C@H](F)C4=CC(=O)C=C[C@]4(C)[C@@]3(F)[C@@H](O)C[C@]2(C)[C@@]1(O)C(=O)CO", ">", 10000],
  ["CCCC1(CCC)CCC2(CCN(CCCN(CC)CC)C2)CC1", "=", 2660],
  ["CC(C)[C@H](C(=O)Nc1ccc(C(=O)NO)cc1)c1ccccc1", "=", 498]
]}
